B1: PDZK1 (parent)
chain: QKEQGLSDNILSPVMNGGVQTWTQ

# Variants of: B1
# Protocol Description: protein stability index of a GFP-peptide fusion (GPS, HEK-293T) (PSI 1-6); higher = more stable;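 note: lentivirally expressed fusions sorted by FACS into six bins by GFP to DsRed ratio, PSI derived from sequencing read proportions per bin multiplied by bin number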
# Experimental Conditions: c terminus: a fixed tail appended
Readout Type: protein stability index
Reply briefly: the number, and no unit.

As a guide, the following entries are already answered.
Item Sequence	protein stability index
QKEQGLSDNILSPVMNGGVQTQTQ [W22Q]	5.24
SKEQGLSDNILSPVMNGGVQTWTQ [Q1S]	2.1
QKEQGLSDNILSPVMNGGVQMWTQ [T21M]	3.63
QDEQGLSDNILSPVMNGGVQTWTQ [K2D]	3.23
QKEQGLSDNILSPVMNGGVQTWWQ [T23W]	2.96
QKEQGLSDNILSPVMNGGVQTETQ [W22E]	4.3
QKEQGLSDNILSPVMNHGVQTWTQ [G17H]	1.91
QKEQGLSDNILSPHMNGGVQTWTQ [V14H]	2.46
QKEQGLSDNILSPVMNGGVQTWTE [Q24E]	3.43
QKEQGLSDCILSPVMNGGVQTWTQ [N9C]	2.67

Using the record for QKEQGLSDNILSPVMNGGVQEWTQ [T21E] , report its protein stability index.
3.71

Using the record for QKEQGLSDNILSPVMNGGVQPWTQ [T21P] , report its protein stability index.
3.74
